# Lookup of reported IC50 keyed by entry
# testedOn: CDK4/Cyclin D1 (Homo sapiens (Human), UniProt P11802)
# Sequence (P11802 whole entry): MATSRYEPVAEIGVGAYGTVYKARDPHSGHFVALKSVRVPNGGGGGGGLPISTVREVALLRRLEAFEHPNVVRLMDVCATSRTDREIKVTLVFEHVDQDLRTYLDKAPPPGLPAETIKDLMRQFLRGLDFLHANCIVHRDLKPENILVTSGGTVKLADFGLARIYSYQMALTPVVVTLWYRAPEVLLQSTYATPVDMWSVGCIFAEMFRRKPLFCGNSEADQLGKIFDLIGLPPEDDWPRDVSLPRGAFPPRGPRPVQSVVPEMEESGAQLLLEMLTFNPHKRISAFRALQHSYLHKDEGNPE
# Sequence (P24385 whole entry partner): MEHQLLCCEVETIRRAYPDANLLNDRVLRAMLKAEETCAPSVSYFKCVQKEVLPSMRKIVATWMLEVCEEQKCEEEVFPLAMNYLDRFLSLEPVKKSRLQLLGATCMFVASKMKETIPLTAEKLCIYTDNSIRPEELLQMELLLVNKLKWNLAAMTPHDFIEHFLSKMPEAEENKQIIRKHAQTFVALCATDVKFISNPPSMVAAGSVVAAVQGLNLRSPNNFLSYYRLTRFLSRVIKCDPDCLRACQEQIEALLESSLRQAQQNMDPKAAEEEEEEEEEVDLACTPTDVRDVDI
# assayInfo: CDK4/CyclinD1 kinase inhibitory activity (Caliper mobility shift)

Consider the worked cases shown below.
[[record]]
compound = "CNS(=O)(=O)c1ccc(Nc2ncc(C(F)(F)F)c(OC3CCCC3O)n2)cc1 (single isomer, unassigned) [Example 105a]"
testedon = "CDK4/Cyclin D1 (Homo sapiens (Human), UniProt P11802)"
recordedresult = "100 to 1000 nM"

[[record]]
compound = "CO[C@H]1C[C@](C)(COc2nc(NC3CCN(S(=O)(=O)c4cnn(C)c4)CC3)ncc2C#N)C1 [Example 64a]"
testedon = "CDK4/Cyclin D1 (Homo sapiens (Human), UniProt P11802)"
recordedresult = "10 to 100 nM"

[[record]]
compound = "Cn1cc(S(=O)(=O)N2CCC(Nc3ncc(C#N)c(OCC4(C)CC(F)(F)C4)n3)CC2)cn1"
testedon = "CDK4/Cyclin D1 (Homo sapiens (Human), UniProt P11802)"
recordedresult = "< 10 nM"

[[record]]
compound = "CC1(COc2nc(NC3CCN(S(C)(=O)=O)CC3)ncc2C(F)(F)F)CCCC1"
testedon = "CDK4/Cyclin D1 (Homo sapiens (Human), UniProt P11802)"
recordedresult = "< 10 nM"

[[record]]
compound = "C[C@]1(O)COC[C@H]1Oc1nc(NC2CCN(S(C)(=O)=O)CC2)ncc1C(F)(F)F (relative stereo) [Example 104b]"
testedon = "CDK4/Cyclin D1 (Homo sapiens (Human), UniProt P11802)"
recordedresult = "100 to 1000 nM"


Please report the measured IC50 for CC1(O)CC(F)(F)CCC1Oc1nc(NC2CCN(S(C)(=O)=O)CC2)ncc1C#N (single isomer, unassigned) [Example 47b]
100 to 1000 nM

The measurements presented in this section are drawn from patent US20240166635A1.
